target: T1, human TfR ectodomain fused to a mouse IgG1 Fc fragment (human, UniProt P02786 89-760); test: SPR, kinetic
T1 construct: extracellular domain; ectodomain fused to the N-terminal end of the Fc, made in-house; not shown: mouse IgG1 Fc fragment
T1 sequence (P02786 89-760): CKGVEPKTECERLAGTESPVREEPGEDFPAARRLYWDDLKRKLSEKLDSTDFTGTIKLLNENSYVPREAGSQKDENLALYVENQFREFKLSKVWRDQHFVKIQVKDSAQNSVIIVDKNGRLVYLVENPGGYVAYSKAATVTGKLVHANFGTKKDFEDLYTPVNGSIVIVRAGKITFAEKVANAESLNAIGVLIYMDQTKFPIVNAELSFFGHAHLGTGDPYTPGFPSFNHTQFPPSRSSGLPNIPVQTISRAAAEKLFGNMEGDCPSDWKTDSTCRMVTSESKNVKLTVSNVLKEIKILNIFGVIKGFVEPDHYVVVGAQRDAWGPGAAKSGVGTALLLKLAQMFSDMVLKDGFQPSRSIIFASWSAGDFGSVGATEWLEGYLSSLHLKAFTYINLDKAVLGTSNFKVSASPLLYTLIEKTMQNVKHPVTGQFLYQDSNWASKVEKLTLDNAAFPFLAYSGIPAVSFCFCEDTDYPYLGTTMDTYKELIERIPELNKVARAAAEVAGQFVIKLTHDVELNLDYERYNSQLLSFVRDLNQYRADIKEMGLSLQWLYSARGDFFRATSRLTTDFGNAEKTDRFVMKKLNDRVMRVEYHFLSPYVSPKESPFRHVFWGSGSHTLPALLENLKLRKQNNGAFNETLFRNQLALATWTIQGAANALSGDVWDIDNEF
Listing of recorded kon by entry.
The reply should contain only the number, in M⁻¹ s⁻¹.

Take a look at these entries with their results.
[
  {
    "BINDER": "C5^h9 (VHH) VHH: EVQLVESGGGVVQPGGSLRLSCAASGTDFSINFIRWYRQAPGKGLEFVAGFTATGNTNYADSVKGRFTISRDNAKNTLYLQMNSLRPEDTAVYYCYMLDKWGQGTQVTVSS",
    "OBSERVED VALUE": 549000
  },
  {
    "BINDER": "VHH A5 (C5^V5) (VHH) VHH: EVQLVESGGGVVQPGGSLKLSCVASGTDFSINFIRWYRQAPGKQREFVAGFTATGNTNYADSMKGRFTISRDNTKNAVYLQIDSLKPEDTAVYYCAMLDKWGQGTQVTVSS",
    "OBSERVED VALUE": 332000
  }
]

Let us examine a further case.
Ask: For the binder shown here, C5^h22 (VHH) VHH: EVQLVESGGGVVQPGGSLRLSCAASGTDFSINFIRWYRQAPGKGREFVAGFTATGNTNYADSVKGRFTISRDNAKNTLYLQMNSLRPEDTAVYYCYMLDKWGQGTQVTVSS , give the reported kon.
Reply: 1.5e+06
